# studyTarget: T1, monomeric hIL-4R (R&D Systems) (human, UniProt P24394 26-231)
# T1 construct: Bought (R&D Systems); also called hIL-4R monomer
# T1 sequence: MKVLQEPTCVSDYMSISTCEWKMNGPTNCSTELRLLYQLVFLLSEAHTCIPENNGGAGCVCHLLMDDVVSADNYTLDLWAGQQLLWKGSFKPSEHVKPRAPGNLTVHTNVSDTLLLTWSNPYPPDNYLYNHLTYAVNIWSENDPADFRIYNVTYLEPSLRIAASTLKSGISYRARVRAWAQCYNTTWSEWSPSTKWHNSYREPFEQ
# assayText: SPR (BIAcore 2000); antibody captured, monomeric hIL-4R injected
# Method: Binding affinity (KD) of selected antibodies with respect to hIL-4R was determined using a real-time biosensor surface plasmon resonance assay (BIAcore™ 2000). Briefly, antibody was captured on a goat anti-mouse (GAM) IgG polyclonal antibody surface created through direct chemical coupling of the GAM IgG to a BIAcore™ chip to form a captured antibody surface. […] Binding of antigen to antibody and dissociation of the bound complex, were monitored in real time. […]
Returns true if the recorded T1/2 monomeric is greater than or equal to 100 min, and false otherwise.

1) VAB 16F3-1 (antibody, V domains shown, Apparently tested with mouse constant region (anti-mouse IgG capture/detection)) VH: QVQLVQSGAEVKKPGASVKVSCKASGYTFNSYGISWVRQAPGQGLEWMGWIRTYNGNTNYAQKLQGRVTMTTDTSTSTAYMELRSLRSDDTAVYYCARDEARIVVAGTTPYYYGMDVWGQGTTVTVSS VL: DIQMTQSPSSVSASVGDRVTITCRASQDISIWLAWYQQSPGKAPKLLINVASRLQSGVPSRFSGSGSGTDFTLTINSLQPEDFVTYYCQQANSFPITFGQGTRLATK; true
2) VAK5H4-4 (antibody, V domains shown, Apparently tested with mouse constant region (anti-mouse IgG capture/detection)) VH: QVRLVESGGGVVQPGGSLRLSCVASGFTFRSYGMHWVRQAPGRGLEWVAVISYDGSKTFYVDSVKVRFTISRDNSKNTLYLEMNSLRVDDTAVYFCVKEGRSGSWFDPWGQGTLVAVSS VL: DIQMTQSPSSLSASVGDRVTITCRASQAINNFLAWFQQKPGKTPNSLIFATSSLQSGVPSRFSAGGSGTDFTLTISSLQPEDFATYYCQQYNSHPWTFGQGTKVEIK; true
3) VAB 8G10-1 (antibody, V domains shown, Apparently tested with mouse constant region (anti-mouse IgG capture/detection)) VH: QVQLVQSGPEVKKPGASVKVSCKASGYTFTNYGISWVRQAPGQGLEWMGWISVYNGNINYAQKLQGRVTMTTDTSTSTAYMDLRSLRSDDTAVYYCARGSGYDFDYWGQGTLVTVSS VL: AIQMTQSPSSLSASVGDRVTITCRASQDIRNALGWYQQKPGKAPKLLIYAASSLQSGVPSRFSGSASGTDFTLTISSLQPEDFAAYYCLQDYNYPYTFGQGTKLEIK; false
4) VAK10G6-7 (antibody, V domains shown, Apparently tested with mouse constant region (anti-mouse IgG capture/detection)) VH: QVQLVESGGGVVQPGRSLRLSCTASGFTFSSFGMHWVRQAPGRGLEWVAVISYDGSKKYYADSVKVRFTISRDNSKNTLYLQMNSLRVDDTAVYFCAKEGRTGNWFDPWGQGTLVAVSS VL: DIQMTQSPSSLSASVGDRVTITCRASQAINNYLAWFQQKPGKTPKSLIFATSSLQSGVPSRFSGTGSGTDFTLTISSLQPEDFATYYCQQYNSHPWTFGQGTKVEIR; true
